- Tested on: HIV-1 IN mutant P142H
- protocol: single-round infectivity assay, P142H IN mutant
- Type: cell-based
- stated conditions: Human immunodeficiency virus 1, read-out: EC50 values P142H
- Protocol: The EC50 values were determined using a vector that carries the IN mutant in a single round infection assay. […] Error bars represent the standard deviations of independent experiments, n = 4, performed in triplicate. Single round infectivity measurements were determined as done previously.[38] The vector pNLNgoMIVR-ΔENV.LUC has been described previously.[26] […]
Just a reminder that ties go to not fulfilled: only EC50 strictly below 3 nM counts as fulfilled.

• CS(=O)(=O)CCc1cnc2c(c1)c(N)c(C(=O)NCc1ccc(F)cc1F)c(=O)n2O [6u] = not fulfilled
• O=C(NCc1ccc(F)cc1F)c1c(O)c2cc(CCS(=O)(=O)c3ccccc3)cnc2n(O)c1=O [6w] = not fulfilled
• Nc1c(C(=O)NCc2ccc(F)cc2F)c(=O)n(O)c2ncc(CCCCCCO)cc12 [4d] = fulfilled
• Nc1c(C(=O)NCc2ccc(F)cc2F)c(=O)n(O)c2ncc(CCS(=O)(=O)c3ccccc3)cc12 [4f] = fulfilled
• O=C(NCc1ccc(F)cc1F)c1c(O)c2c(CO)ccnc2n(O)c1=O [5j] = not fulfilled
• C[C@@H]1CCO[C@H]2Cn3cc(C(=O)NCc4ccc(F)cc4F)c(=O)c(O)c3C(=O)N12 [DTG, dolutegravir, reference compound] = fulfilled
• Nc1c(C(=O)NCc2ccc(F)cc2F)c(=O)n(O)c2ncc(CCS(=O)(=O)CCN3CCOCC3)cc12 [6v] = not fulfilled
• COC(=O)CNc1c(C(=O)NCc2ccc(F)cc2F)c(=O)n(O)c2ncccc12 [5′g] = not fulfilled

---

FC R231G: recorded values
- Tested on: HIV-1 IN mutant R231G
- protocol: single-round infectivity assay, R231G IN mutant
- Type: cell-based
- stated conditions: fold change in EC50, IN mutant versus WT HIV-1
measured metric: FC R231G

* COC(=O)CNc1c(C(=O)NCc2ccc(F)cc2F)c(=O)n(O)c2ncccc12 | 2.6
* C[C@@H]1CCO[C@H]2Cn3cc(C(=O)NCc4ccc(F)cc4F)c(=O)c(O)c3C(=O)N12 [DTG, dolutegravir, reference compound] | 0.9
* CS(=O)(=O)CCc1cnc2c(c1)c(N)c(C(=O)NCc1ccc(F)cc1F)c(=O)n2O | 1.2
* O=C(NCc1ccc(F)cc1F)c1c(O)c2c(CO)ccnc2n(O)c1=O | 0.3

---

- System: HIV-1 IN mutant G118R
- protocol: single-round infectivity assay, G118R IN mutant
- Assay type: cell-based
- stated conditions: EC50 compound / EC50 DTG
measured metric: ratio of the EC50s (our compound relative to DTG) against G118R

• CS(=O)(=O)CCc1cnc2c(c1)c(N)c(C(=O)NCc1ccc(F)cc1F)c(=O)n2O [6u] = 16.5
• Nc1c(C(=O)NCc2ccc(F)cc2F)c(=O)n(O)c2ncc(CCS(=O)(=O)c3ccccc3)cc12 [4f] = 0.9
• Nc1c(C(=O)NCc2ccc(F)cc2F)c(=O)n(O)c2ncc(CCS(=O)(=O)CCN3CCOCC3)cc12 [6v] = 88.3
• O=C(NCc1ccc(F)cc1F)c1c(O)c2cc(CCS(=O)(=O)c3ccccc3)cnc2n(O)c1=O [6w] = 16.8

---

- Tested on: HIV-1 IN mutant S230R
- protocol: single-round infectivity assay, S230R IN mutant
- Format: cell-based
- stated conditions: fold change in EC50, IN mutant versus WT HIV-1
Just a reminder that ties go to class 0: only FC S230R strictly below 2 counts as class 1.

• Nc1c(C(=O)NCc2ccc(F)cc2F)c(=O)n(O)c2ncc(CCCCCCO)cc12 [4d] = class 1
• CS(=O)(=O)CCc1cnc2c(c1)c(N)c(C(=O)NCc1ccc(F)cc1F)c(=O)n2O [6u] = class 0
• Nc1c(C(=O)NCc2ccc(F)cc2F)c(=O)n(O)c2ncc(CCS(=O)(=O)CCN3CCOCC3)cc12 [6v] = class 0
• O=C(NCc1ccc(F)cc1F)c1c(O)c2c(CO)ccnc2n(O)c1=O [5j] = class 1
• C[C@@H]1CCO[C@H]2Cn3cc(C(=O)NCc4ccc(F)cc4F)c(=O)c(O)c3C(=O)N12 [DTG, dolutegravir, reference compound] = class 0
• COC(=O)CNc1c(C(=O)NCc2ccc(F)cc2F)c(=O)n(O)c2ncccc12 [5′g] = class 1
• O=C(NCc1ccc(F)cc1F)c1c(O)c2cc(CCS(=O)(=O)c3ccccc3)cnc2n(O)c1=O [6w] = class 1
• Nc1c(C(=O)NCc2ccc(F)cc2F)c(=O)n(O)c2ncc(CCS(=O)(=O)c3ccccc3)cc12 [4f] = class 0

---

EC50: recorded values
- Test system: HIV-1 IN mutant N117A
- protocol: single-round infectivity assay, N117A IN mutant
- Type: cell-based
- stated conditions: Human immunodeficiency virus 1, read-out: EC50 values N117A
measured metric: EC50 (nM)

- COC(=O)CNc1c(C(=O)NCc2ccc(F)cc2F)c(=O)n(O)c2ncccc12: 1.2
- C[C@@H]1CCO[C@H]2Cn3cc(C(=O)NCc4ccc(F)cc4F)c(=O)c(O)c3C(=O)N12 [DTG, dolutegravir, reference compound]: 0.5
- CS(=O)(=O)CCc1cnc2c(c1)c(N)c(C(=O)NCc1ccc(F)cc1F)c(=O)n2O: 15
- O=C(NCc1ccc(F)cc1F)c1c(O)c2c(CO)ccnc2n(O)c1=O: 13.4
- Nc1c(C(=O)NCc2ccc(F)cc2F)c(=O)n(O)c2ncc(CCS(=O)(=O)CCN3CCOCC3)cc12: 160
- Nc1c(C(=O)NCc2ccc(F)cc2F)c(=O)n(O)c2ncc(CCCCCCO)cc12: 0.6
- Nc1c(C(=O)NCc2ccc(F)cc2F)c(=O)n(O)c2ncc(CCS(=O)(=O)c3ccccc3)cc12: 0.8
- O=C(NCc1ccc(F)cc1F)c1c(O)c2cc(CCS(=O)(=O)c3ccccc3)cnc2n(O)c1=O: 6.4

---

- System: HIV-1 IN mutant S119R
- protocol: single-round infectivity assay, S119R IN mutant
- Type: cell-based
- stated conditions: fold change in EC50, IN mutant versus WT HIV-1
FC S119R: recorded values
measured metric: FC S119R

* COC(=O)CNc1c(C(=O)NCc2ccc(F)cc2F)c(=O)n(O)c2ncccc12 | 5.9
* Nc1c(C(=O)NCc2ccc(F)cc2F)c(=O)n(O)c2ncc(CCCCCCO)cc12 | 0.9
* CS(=O)(=O)CCc1cnc2c(c1)c(N)c(C(=O)NCc1ccc(F)cc1F)c(=O)n2O | 2.1
* C[C@@H]1CCO[C@H]2Cn3cc(C(=O)NCc4ccc(F)cc4F)c(=O)c(O)c3C(=O)N12 [DTG, dolutegravir, reference compound] | 1.4
* O=C(NCc1ccc(F)cc1F)c1c(O)c2cc(CCS(=O)(=O)c3ccccc3)cnc2n(O)c1=O | 3.6
* Nc1c(C(=O)NCc2ccc(F)cc2F)c(=O)n(O)c2ncc(CCS(=O)(=O)c3ccccc3)cc12 | 1.3
* O=C(NCc1ccc(F)cc1F)c1c(O)c2c(CO)ccnc2n(O)c1=O | 1.0
* Nc1c(C(=O)NCc2ccc(F)cc2F)c(=O)n(O)c2ncc(CCS(=O)(=O)CCN3CCOCC3)cc12 | 1.8

---

- Tested on: HIV-1 IN mutant S119R
- protocol: single-round infectivity assay, S119R IN mutant
- Format: cell-based
- stated conditions: EC50 compound / EC50 DTG
Class YES: ratio of the EC50s (our compound relative to DTG) against S119R at least 3. Class NO: ratio of the EC50s (our compound relative to DTG) against S119R below 3.

• Nc1c(C(=O)NCc2ccc(F)cc2F)c(=O)n(O)c2ncc(CCS(=O)(=O)c3ccccc3)cc12 = NO
• CS(=O)(=O)CCc1cnc2c(c1)c(N)c(C(=O)NCc1ccc(F)cc1F)c(=O)n2O = YES
• O=C(NCc1ccc(F)cc1F)c1c(O)c2cc(CCS(=O)(=O)c3ccccc3)cnc2n(O)c1=O = YES
• Nc1c(C(=O)NCc2ccc(F)cc2F)c(=O)n(O)c2ncc(CCS(=O)(=O)CCN3CCOCC3)cc12 = YES
• Nc1c(C(=O)NCc2ccc(F)cc2F)c(=O)n(O)c2ncc(CCCCCCO)cc12 = NO
• COC(=O)CNc1c(C(=O)NCc2ccc(F)cc2F)c(=O)n(O)c2ncccc12 = YES

---

ratio of the EC50s (our compound relative to DTG) against P142S: recorded values
- Test system: HIV-1 IN mutant P142S
- protocol: single-round infectivity assay, P142S IN mutant
- Type: cell-based
- stated conditions: EC50 compound / EC50 DTG
measured metric: ratio of the EC50s (our compound relative to DTG) against P142S

• O=C(NCc1ccc(F)cc1F)c1c(O)c2cc(CCS(=O)(=O)c3ccccc3)cnc2n(O)c1=O [6w] = 14.2
• O=C(NCc1ccc(F)cc1F)c1c(O)c2c(CO)ccnc2n(O)c1=O [5j] = 1.6
• Nc1c(C(=O)NCc2ccc(F)cc2F)c(=O)n(O)c2ncc(CCCCCCO)cc12 [4d] = 0.5
• Nc1c(C(=O)NCc2ccc(F)cc2F)c(=O)n(O)c2ncc(CCS(=O)(=O)c3ccccc3)cc12 [4f] = 0.7
• CS(=O)(=O)CCc1cnc2c(c1)c(N)c(C(=O)NCc1ccc(F)cc1F)c(=O)n2O [6u] = 23.4
• Nc1c(C(=O)NCc2ccc(F)cc2F)c(=O)n(O)c2ncc(CCS(=O)(=O)CCN3CCOCC3)cc12 [6v] = 156.4
• COC(=O)CNc1c(C(=O)NCc2ccc(F)cc2F)c(=O)n(O)c2ncccc12 [5′g] = 12.4
